# System: Escherichia coli
# PROTOCOL: Antibacterial activity against Escherichia coli ATCC 25922 assessed as diameter of inhibition zone at 1 mg/ml after 24 hrs by agar well diffusion method
# Assay type: functional
# EXPERIMENTAL_CONTEXT: ATCC 25922, 24 h, read-out: DIZ
PROPERTY_MEASURED: zone of inhibition at 1000 µg/mL

Answered cases to consult:
MOL_SMILES | OBSERVED
O=C(O)CNC(=O)c1ccc(NC(=S)Nc2c3ccccc3nc3ccccc23)cc1 | 15 mm
O=C(O)CNC(=O)c1ccc(NC(=S)Nc2cccc(F)c2)cc1 | 20 mm
O=C(O)CNC(=O)c1ccc(NC(=S)Nc2ccc(F)cc2)cc1 | 22 mm
O=C(O)CNC(=O)c1ccc(NC(=S)NNC(=O)c2ccccc2)cc1 | 15 mm
O=C(O)CNC(=O)c1ccc(NC(=S)Nc2ccc(S(=O)(=O)Nc3ccccn3)cc2)cc1 | 21 mm

Specify zone of inhibition at 1000 µg/mL for O=C(O)CNC(=O)c1ccc(NC(=S)Nc2ccc(S(=O)(=O)Nc3ncccn3)cc2)cc1 and stop.
32 mm

Specify zone of inhibition at 1000 µg/mL for CCCCCCNC(=S)Nc1ccc(C(=O)NCC(=O)O)cc1 and stop.
11 mm

Specify zone of inhibition at 1000 µg/mL for NS(=O)(=O)c1ccc(NC(=S)Nc2ccc(C(=O)NCC(=O)O)cc2)cc1 and stop.
18 mm

Specify zone of inhibition at 1000 µg/mL for O=C(O)CNC(=O)c1ccc(NC(=S)Nc2ccccc2C(=O)Nc2cccc(C(F)(F)F)c2)cc1 and stop.
0 mm

Specify zone of inhibition at 1000 µg/mL for Nc1n[nH]c(NC(=S)Nc2ccc(C(=O)NCC(=O)O)cc2)c1/N=N/c1ccc(Cl)cc1 and stop.
28 mm
